# Tested system: human GPR40 receptor (Homo sapiens)
# Sequence (O14842 whole entry): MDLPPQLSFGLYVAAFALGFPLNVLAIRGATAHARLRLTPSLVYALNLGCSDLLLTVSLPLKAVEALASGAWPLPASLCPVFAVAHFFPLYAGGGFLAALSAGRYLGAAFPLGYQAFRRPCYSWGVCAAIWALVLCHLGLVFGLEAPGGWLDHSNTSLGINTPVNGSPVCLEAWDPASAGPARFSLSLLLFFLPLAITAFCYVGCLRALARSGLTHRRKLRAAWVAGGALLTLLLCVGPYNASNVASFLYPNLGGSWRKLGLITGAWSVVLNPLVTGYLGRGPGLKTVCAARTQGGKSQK
# Test method notes: IP1 accumulation measurements using the IPOne assay system
# Conditions: 1321N1 cells stably expressing human GPR40 receptor, stimulation 1 h at 37° C.
Please go through the items and note down their EC50.
Numbers only, in nM.

Past entries and their recorded results:
>>> df
                              smiles_record                        tested_system  reported_measurement
0  Cc1cc(OCC(C)(C)C#N)cc(C)c1-c1cc(CNc2ccc([C@H]3C[C@@H]3C(=O)O)cn2)c(F)cc1F  human GPR40 receptor (Homo sapiens)                    81
1  Cc1cc(OCC2(O)CCS(=O)(=O)CC2)cc(C)c1-c1cc(CNc2ccc([C@H]3C[C@@H]3C(=O)O)cn2)c(F)cc1F  human GPR40 receptor (Homo sapiens)                   101
2  Cc1cc(-c2ccn(C)c(=O)c2)cc(C)c1-c1cc(CNc2ccc([C@H]3C[C@@H]3C(=O)O)cn2)c(F)cc1F  human GPR40 receptor (Homo sapiens)                    29
3  Cc1cc(OCC(C)(C)C#N)cc(C)c1-c1ccc(F)c(CNc2ccc([C@H]3C[C@@H]3C(=O)O)cn2)c1  human GPR40 receptor (Homo sapiens)                    96
4  Cc1cc(-c2ccn(C)c(=O)c2)cc(C)c1-c1ccc(F)c(CNc2ccc([C@H]3C[C@@H]3C(=O)O)cn2)c1  human GPR40 receptor (Homo sapiens)                    32
5  O=C(O)[C@H]1C[C@@H]1c1ccc(NCc2cc(-c3c(Cl)cccc3Cl)c(F)cc2F)nc1  human GPR40 receptor (Homo sapiens)                    40

Hey, quick one: what's EC50 for each of these?
1. Cc1cc(OCCC(C)(C)O)cc(C)c1-c1ccc(F)c(CNc2ccc([C@H]3C[C@@H]3C(=O)O)cn2)c1
2. COc1cc(OC)c(Cl)c(-c2ccc(F)c(CNc3ccc([C@H]4C[C@@H]4C(=O)O)cn3)c2)c1Cl
3. O=C(O)[C@H]1C[C@@H]1c1ccc(NCc2cc(-c3c(F)cc(OC4CC4)cc3F)ccc2F)nc1
4. O=C(O)[C@H]1C[C@@H]1c1ccc(NCc2cc(-c3ccccc3C(F)(F)F)c(F)cc2F)nc1
5. COc1cc(F)c(-c2cc(CNc3ccc([C@H]4C[C@@H]4C(=O)O)cn3)c(F)cc2F)c(F)c1
6. COc1c(F)c(F)c(-c2cc(CNc3ccc([C@H]4C[C@@H]4C(=O)O)cn3)c(F)cc2F)c(F)c1F

[45, 128, 570, 48, 668, 123]

Provide reported EC50 for each item, in the same order as listed.
1. CCc1cccc(CC)c1-c1cc(CNc2ccc([C@H]3C[C@@H]3C(=O)O)cn2)c(F)cc1F
2. Cc1cc(C(=O)N(C)C)cc(C)c1-c1cc(CNc2ccc([C@H]3C[C@@H]3C(=O)O)cn2)c(F)cc1F
3. Cc1ccc(Cl)c(-c2ccc(F)c(CNc3ccc([C@H]4C[C@@H]4C(=O)O)cn3)c2)c1Cl
4. Cc1cc(C(=O)O)cc(C)c1-c1cc(CNc2ccc([C@H]3C[C@@H]3C(=O)O)cn2)c(F)cc1F
5. O=C(O)[C@H]1C[C@@H]1c1ccc(NCc2cc(-c3c(F)cccc3F)c(F)cc2F)nc1
6. Cc1cc(CO)cc(C)c1-c1cc(CNc2ccc([C@H]3C[C@@H]3C(=O)O)cn2)c(F)cc1F

[72, 462, 41, 5960, 931, 236]

For the 5 compounds below, give their EC50 values.
1. O=C(O)[C@H]1C[C@@H]1c1ccc(NCc2ccc(C(F)(F)F)c(-c3ccc(OCC4CC4)cc3)c2)nc1
2. Cc1cc(-c2ccc(=O)n(C)c2)cc(C)c1-c1ccc(F)c(CNc2ccc([C@H]3C[C@@H]3C(=O)O)cn2)c1
3. O=C(O)[C@H]1C[C@@H]1c1ccc(NCc2ccc(C(F)(F)F)c(-c3ccc(OC(F)(F)F)cc3)c2)nc1
4. Cc1cc(-c2ccnn2C)cc(C)c1-c1ccc(F)c(CNc2ccc([C@H]3C[C@@H]3C(=O)O)cn2)c1
5. Cc1cc(-c2cc(=O)n(C)cn2)cc(C)c1-c1cc(CNc2ccc([C@H]3C[C@@H]3C(=O)O)cn2)c(F)cc1F

[34, 17, 38, 25, 25]
